The origin of these recorded values is patent US20250051301A1.

IC50 reference
Target: IDH2^R140Q (Homo sapiens, UniProt P48735, R140Q)
Test: Enzyme activity inhibition assay (fluorescence-based), IDH2 R140Q
Assay type: biochemical
Conditions: numeric values
From the text: The inhibitory ability of the compounds on the enzyme activities of IDH1^R132H and IDH2^R140Qwas detected and expressed as the half inhibitory concentration (IC50) value. AG-881 was used as a positive control compound. […]

# molecule, IC50 (nM)
rows = [
    ("C[C@@H](Nc1nc(N[C@H](C)C(F)(F)F)nc(-c2cc(Cl)c(N)c(Cl)n2)n1)C(F)(F)F [Example 1]", 128),
    ("C[C@@H](Nc1nc(N[C@H](C)C(F)(F)F)nc(-c2cc(F)c(N)c(Cl)n2)n1)C(F)(F)F [Example 5]", 190),
]

====

Experiment: Pharmacokinetic detection in dogs
Type: in vivo
Conditions: both sexes, dog, plasma; beagle dogs, PO, 5 mg/kg
Protocol: Adult beagle dogs (6-12 months of age) received a single dose of the compounds to be tested via intravenous administration (IV) or oral gavage administration (PO), respectively. […] The concentration of the compounds to be tested in the plasma sample was analyzed by liquid chromatography-tandem mass spectrometry (LC-MS/MS). Plasma concentration-time data for individual animals were analyzed using Sciex Analyst software. […]

# compound, units-text, AUC(0-t)
rows = [
    ("C[C@@H](Nc1nc(N[C@H](C)C(F)(F)F)nc(-c2cc(F)c(N)c(Cl)n2)n1)C(F)(F)F [Example 5]", "ng·h/mL", 11700),
    ("C[C@@H](Nc1nc(N[C@H](C)C(F)(F)F)nc(-c2cccc(Cl)n2)n1)C(F)(F)F [compound 1, reference compound]", "ng·h/mL", 2160),
]

====

molecular target: IDH1^R132H (Homo sapiens, UniProt O75874, R132H); assay: Enzyme activity inhibition assay (fluorescence-based), IDH1 R132H; format: biochemical; details: class symbols
Sequence (O75874 whole entry R132H): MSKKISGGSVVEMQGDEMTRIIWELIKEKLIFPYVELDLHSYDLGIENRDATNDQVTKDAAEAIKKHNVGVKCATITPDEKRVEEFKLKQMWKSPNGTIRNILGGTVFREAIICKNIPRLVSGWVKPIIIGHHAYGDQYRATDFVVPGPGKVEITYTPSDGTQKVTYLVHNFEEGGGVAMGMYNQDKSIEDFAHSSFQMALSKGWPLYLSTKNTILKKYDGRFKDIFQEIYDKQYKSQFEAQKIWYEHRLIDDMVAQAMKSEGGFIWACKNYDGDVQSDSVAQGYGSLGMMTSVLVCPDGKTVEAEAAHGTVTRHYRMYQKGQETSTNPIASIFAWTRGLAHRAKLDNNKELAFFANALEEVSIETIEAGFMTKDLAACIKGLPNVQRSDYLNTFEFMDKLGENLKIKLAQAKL
metric: IC50

# compound-smiles, value-measured
records = [
    ("C[C@@H](Nc1nc(N[C@H](C)C2CC2)nc(-c2cc(F)c(N)c(Cl)n2)n1)C1CC1", "> 1000 nM"),
    ("COc1cc(-c2nc(N[C@H](C)C(F)(F)F)nc(N[C@H](C)C(F)(F)F)n2)nc(Cl)c1N", "> 1000 nM"),
    ("C=Cc1cc(-c2nc(N[C@H](C)C(F)(F)F)nc(N[C@H](C)C(F)(F)F)n2)nc(Cl)c1N", "> 1000 nM"),
    ("C[C@@H](Nc1nc(N[C@H](C)C(F)(F)F)nc(-c2cc(F)c(Cl)c(Cl)n2)n1)C(F)(F)F", "≤ 50 nM"),
    ("C[C@@H](Nc1nc(N[C@H](C)C(F)(F)F)nc(-c2cc(F)c(N)c(F)n2)n1)C(F)(F)F", "100 to 1000 nM"),
    ("C[C@@H](Nc1nc(N[C@H](C)C(F)(F)F)nc(-c2nc(Cl)c(N)cc2F)n1)C(F)(F)F", "> 1000 nM"),
    ("C[C@@H](Nc1nc(N[C@H](C)C(F)(F)F)nc(-c2cc(Br)c(N)c(Cl)n2)n1)C(F)(F)F", "100 to 1000 nM"),
]

====

solubility at 2 h reference
experiment: Kinetic solubility experiment; assay type: physicochemical; conditions: buffer, simulated gastric fluid, kinetic from dmso stock, pH = 1.0, 37° C.
metric: solubility at 2 h

# compound, value-measured
records = [
    ("C[C@@H](Nc1nc(N[C@H](C)C(F)(F)F)nc(-c2cc(F)c(N)c(Cl)n2)n1)C(F)(F)F", "86.6 µg/mL"),
    ("C[C@@H](Nc1nc(N[C@H](C)C(F)(F)F)nc(-c2cccc(Cl)n2)n1)C(F)(F)F [compound 1, reference compound]", "39.6 µg/mL"),
]

====

assay: Kinetic solubility experiment; type: physicochemical; conditions: buffer, aqueous buffer, kinetic from dmso stock, pH = 3.0, 37° C.

# molecule, solubility at 2 h / µg/mL
measured = [
    ("C[C@@H](Nc1nc(N[C@H](C)C(F)(F)F)nc(-c2cccc(Cl)n2)n1)C(F)(F)F [compound 1, reference compound]", 1.6),
    ("C[C@@H](Nc1nc(N[C@H](C)C(F)(F)F)nc(-c2cc(F)c(N)c(Cl)n2)n1)C(F)(F)F", 53.3),
]

====

biological target: IDH1^R132H (Homo sapiens, UniProt O75874, R132H); experiment: 2-HG assay in cells (U87 cell line stably transfected with IDH1-R132H); assay type: cell-based; conditions: 72 hours, class symbols, read-out: 2-HG in medium (IC50, nM) (IDH1^R132H)
metric: IC50

# compound-smiles, value-measured
rows = [
    ("C[C@@H](Nc1nc(N[C@H](C)C(F)(F)F)nc(-c2cc(Cl)c(O)c(Cl)n2)n1)C(F)(F)F", "> 1000 nM"),
    ("C[C@@H](Nc1nc(N[C@H](C)C(F)(F)F)nc(-c2cc(F)c(Br)c(Cl)n2)n1)C(F)(F)F", "> 1000 nM"),
    ("COc1cc(-c2nc(N[C@H](C)C(F)(F)F)nc(N[C@H](C)C(F)(F)F)n2)nc(Cl)c1N", "> 1000 nM"),
    ("C[C@@H](Nc1nc(N[C@H](C)C(F)(F)F)nc(-c2cc(Br)c(N)c(Cl)n2)n1)C(F)(F)F", "50 to 100 nM"),
    ("C[C@@H](Nc1nc(N[C@H](C)C(F)(F)F)nc(-c2nc(Cl)c(N)cc2F)n1)C(F)(F)F", "> 1000 nM"),
    ("C[C@@H](Nc1nc(N[C@H](C)C(F)(F)F)nc(-c2cc(F)c(O)c(Cl)n2)n1)C(F)(F)F", "100 to 1000 nM"),
    ("C[C@@H](Nc1nc(N[C@H](C)C(F)(F)F)nc(-c2cc(F)c(Cl)c(Cl)n2)n1)C(F)(F)F", "≤ 50 nM"),
    ("C=Cc1cc(-c2nc(N[C@H](C)C(F)(F)F)nc(N[C@H](C)C(F)(F)F)n2)nc(Cl)c1N", "> 1000 nM"),
    ("C[C@@H](Nc1nc(N[C@H](C)C(F)(F)F)nc(-c2cc(F)c(N)c(C(F)(F)F)n2)n1)C(F)(F)F", "100 to 1000 nM"),
    ("Nc1c(F)cc(-c2nc(NC3CC(F)(F)C3)nc(NC3CC(F)(F)C3)n2)nc1Cl", "≤ 50 nM"),
    ("Cc1cc(-c2nc(N[C@H](C)C(F)(F)F)nc(N[C@H](C)C(F)(F)F)n2)nc(Cl)c1N", "50 to 100 nM"),
    ("C[C@@H](Nc1nc(N[C@H](C)C2CC2)nc(-c2cc(F)c(N)c(Cl)n2)n1)C1CC1", "100 to 1000 nM"),
    ("C[C@@H](Nc1nc(N[C@H](C)C(F)(F)F)nc(-c2cc(C(F)F)c(N)c(Cl)n2)n1)C(F)(F)F", "100 to 1000 nM"),
    ("C[C@@H](Nc1nc(N[C@H](C)C(F)(F)F)nc(-c2cc(F)c(N)c(F)n2)n1)C(F)(F)F", "≤ 50 nM"),
    ("C[C@@H](Nc1nc(N[C@H](C)C(F)(F)F)nc(-c2cc(C(F)(F)F)c(N)c(Cl)n2)n1)C(F)(F)F", "100 to 1000 nM"),
]

====

target: IDH1^R132H (Homo sapiens, UniProt O75874, R132H); assay: 2-HG assay in cells (U87 cell line stably transfected with IDH1-R132H); type: cell-based; conditions: 72 hours, numeric values, read-out: 2-HG in medium (IC50, nM) (IDH1^R132H)
Excerpt: […]
IC50 reference
metric: IC50 (nM)

# compound, metric, value-measured
data = [
    ("C[C@@H](Nc1nc(N[C@H](C)C(F)(F)F)nc(-c2ccc(N)c(Cl)n2)n1)C(F)(F)F [Example 2]", "IC50", 17),
    ("C[C@@H](Nc1nc(N[C@H](C)C(F)(F)F)nc(-c2cc(F)c(N)c(Cl)n2)n1)C(F)(F)F [Example 5]", "IC50", 0.5),
    ("C[C@@H](Nc1nc(N[C@H](C)C(F)(F)F)nc(-c2cc(Cl)c(N)c(Cl)n2)n1)C(F)(F)F [Example 1]", "IC50", 26),
]

====

IC50 reference
Target: IDH2^R140Q (Homo sapiens, UniProt P48735, R140Q)
Sequence (P48735 40-452 R140Q): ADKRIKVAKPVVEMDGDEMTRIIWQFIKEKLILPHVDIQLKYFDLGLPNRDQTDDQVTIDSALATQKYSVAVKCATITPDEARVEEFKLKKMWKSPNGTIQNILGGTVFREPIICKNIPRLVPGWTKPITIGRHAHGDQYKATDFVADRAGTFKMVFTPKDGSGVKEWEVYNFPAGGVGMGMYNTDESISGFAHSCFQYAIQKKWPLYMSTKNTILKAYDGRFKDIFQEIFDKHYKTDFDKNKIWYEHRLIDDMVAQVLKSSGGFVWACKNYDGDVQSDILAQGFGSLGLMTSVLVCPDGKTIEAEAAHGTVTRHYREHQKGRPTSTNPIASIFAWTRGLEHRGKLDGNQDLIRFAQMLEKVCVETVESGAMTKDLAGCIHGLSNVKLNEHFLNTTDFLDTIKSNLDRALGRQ
Assay: Enzyme activity inhibition assay (fluorescence-based), IDH2 R140Q
Type: biochemical
Conditions: class symbols

# compound-smiles, IC50
rows = [
    ("C[C@@H](Nc1nc(N[C@H](C)C(F)(F)F)nc(-c2cc(Cl)c(O)c(Cl)n2)n1)C(F)(F)F", "50 to 100 nM"),
    ("C[C@@H](Nc1nc(N[C@H](C)C(F)(F)F)nc(-c2cc(F)c(Br)c(Cl)n2)n1)C(F)(F)F", "50 to 100 nM"),
    ("Cc1cc(-c2nc(N[C@H](C)C(F)(F)F)nc(N[C@H](C)C(F)(F)F)n2)nc(Cl)c1N", "100 to 1000 nM"),
    ("C[C@@H](Nc1nc(N[C@H](C)C(F)(F)F)nc(-c2cc(C(F)F)c(N)c(Cl)n2)n1)C(F)(F)F", "100 to 1000 nM"),
    ("C[C@@H](Nc1nc(N[C@H](C)C(F)(F)F)nc(-c2cc(F)c(N)c(F)n2)n1)C(F)(F)F", "100 to 1000 nM"),
]
